# system name: Carbonic anhydrase 2 (Homo sapiens, UniProt P00918)
# procedure details: Inhibition of human recombinant carbonic anhydrase 2 preincubated for 15 mins prior to testing by stopped flow CO2 hydrase assay
I'd be grateful if you could share measured Ki for these entries.
Give bare numbers, in µM.

N#CCNc1ccc(S(=O)(=O)N[N+](=O)[O-])cc1	1.35
Nc1nnc(S(=O)(=O)N[N+](=O)[O-])s1	4.52

Now for a further molecule.
Given the molecule Nc1cccc(S(=O)(=O)N[N+](=O)[O-])c1 , write its reported Ki. 5.11

----------
# system name: UniProt Q16790
# procedure details: Inhibition of human recombinant carbonic anhydrase 9 preincubated for 15 mins prior to testing by stopped flow CO2 hydrase assay
outcome measure: pKi
Numbers only, as −log10 of the molar value.

Would you please look over these solved cases?
N#CCNc1ccc(S(=O)(=O)N[N+](=O)[O-])cc1	5.70
Nc1nnc(S(=O)(=O)N[N+](=O)[O-])s1	6.08

Please examine the following record next.
Consider the molecule NCc1ccc(S(=O)(=O)N[N+](=O)[O-])cc1 . State its measured pKi. 5.22

# credit: ChEMBL document CHEMBL3817799
